Reported Fold Improvement over 4A8 WT values for the following binders.
Target: T1, human CXCR2 (human, UniProt P25025 1-360)
T1 construct: also called CXC chemokine receptor 2; hCXCR2
T1 sequence: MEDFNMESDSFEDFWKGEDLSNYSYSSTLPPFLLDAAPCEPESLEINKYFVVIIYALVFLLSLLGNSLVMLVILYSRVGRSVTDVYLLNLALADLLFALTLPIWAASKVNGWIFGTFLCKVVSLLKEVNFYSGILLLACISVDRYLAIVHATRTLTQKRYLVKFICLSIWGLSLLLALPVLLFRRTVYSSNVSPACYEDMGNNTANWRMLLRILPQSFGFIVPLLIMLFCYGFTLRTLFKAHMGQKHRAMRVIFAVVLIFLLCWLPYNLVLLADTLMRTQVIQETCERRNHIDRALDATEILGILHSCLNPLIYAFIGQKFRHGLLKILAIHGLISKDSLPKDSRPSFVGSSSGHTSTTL
Assay: flow cytometry, CXCR2-transfected Expi293F cells
Respond numerically; units are fold and should not be typed.

binder	Fold Improvement over 4A8 WT / fold
BKO-4A8 combinatorial variant 4b (antibody, human IgG4 S228P, lambda, V domains shown, IgG4 S228P, lambda) VH: EVQLLESGGGLVQPGGSLRLSCAASGFTFSSSTQSWVRQPPGKGLEWVSAISGRGRSTYYADSVKGRFTISRDNSRNTLYLQMNSLRAEDTAVYYCAIQKGYWGQGILVTVSS VL: QSALTQPPSASGSPGQSVTISCIGTSSDVGGYNYVSWYQQHPDKAPKLMIYEVSKRPSGVPDRFSGSKSGNTASLTVSGLQAEDEADYYCSSYAGSNNFGVFGGGTKLTVLG	1.25

For the next question, use this binder.
I'd like to know its Fold Improvement over 4A8 WT. The binder in question is BKO-4A8 combinatorial variant 2b (antibody, human IgG4 S228P, lambda, V domains shown, IgG4 S228P, lambda) VH: EVQLLESGGGLVQPGGSLRLSCAASGFTFSSSTQSWVRQPPGKGLEWVSAISGRGRSTYYADSVKGRFTISRDNSRNTLYLQMNSLRAEDTAVYYCAIQMGYWGQGILVTVSS VL: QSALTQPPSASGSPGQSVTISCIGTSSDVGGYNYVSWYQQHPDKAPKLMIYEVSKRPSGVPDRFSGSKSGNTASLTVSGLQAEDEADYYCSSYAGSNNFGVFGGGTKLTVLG
1.25

Cited source for all entries: patent US20240301076A1
